- Measured On: Caspase 9 (Homo sapiens, UniProt P55211)
- Experimental Details: Reaction Biology caspase panel
- Format: biochemical
- Cond: read-out: Caspase 9 IC50; (Z-LEHD)2-R110 substrate; three separate experiments
Endpoint Label: IC50 (nM)
One number for each entry, in nM.

**Query** Given the entry CC(C)(C)[C@H](NC(=O)c1ccc(N)c(Cl)c1)C(=O)N1CCC[C@H]1C(=O)N[C@H](C=O)CC(=O)O [Compound 2b, reference compound] , report its measured IC50.
**Result** 5.07

---

- Measured On: UniProtKB P55211
- Sequence (P55211 1-315 limits assumed): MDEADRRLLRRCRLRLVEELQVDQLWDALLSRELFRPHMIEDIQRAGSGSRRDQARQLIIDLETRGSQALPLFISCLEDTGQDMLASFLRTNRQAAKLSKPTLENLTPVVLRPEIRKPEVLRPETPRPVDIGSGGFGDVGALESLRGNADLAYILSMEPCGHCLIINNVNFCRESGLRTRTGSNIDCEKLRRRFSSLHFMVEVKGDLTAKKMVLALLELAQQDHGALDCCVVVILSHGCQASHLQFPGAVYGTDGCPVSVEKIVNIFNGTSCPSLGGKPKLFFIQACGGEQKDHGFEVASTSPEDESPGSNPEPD
- Sequence (P55211 331-416 limits assumed): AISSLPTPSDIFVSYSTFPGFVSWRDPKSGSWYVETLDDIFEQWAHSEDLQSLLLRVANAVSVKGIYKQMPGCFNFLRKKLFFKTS
- Experimental Details: Reaction Biology caspase panel
- Type: biochemical
Endpoint Label: pIC50
One number for each entry, as −log10 of the molar value.

Please review the following examples before continuing.
**Query** Returns the measured pIC50 for the input compound. Input: CCOC(=O)C[C@@H](C#N)NC(=O)[C@@H]1CCCN1C(=O)[C@@H](NC(=O)c1ccc(N)c(Cl)c1)C(C)(C)C
**Result** 5.79

**Query** Requested read-out: pIC50. Entry: CC(C)(C)[C@H](NC(=O)c1ccc(N)c(Cl)c1)C(=O)N1CCC[C@H]1C(=O)N[C@H](C#N)CC(=O)O
**Result** 8.66

Continue with the compound presented below.
**Query** Return reported pIC50; argument: CC(C)(C)[C@H](NC(=O)c1ccc(N)c(Cl)c1)C(=O)N1CCC[C@H]1C(=O)N[C@H](C#N)Cc1nnn[nH]1
**Result** 7.04

---

- Measured On: Caspase 3 (Homo sapiens, UniProt P42574)
- Sequence (P42574 29-175 limits assumed): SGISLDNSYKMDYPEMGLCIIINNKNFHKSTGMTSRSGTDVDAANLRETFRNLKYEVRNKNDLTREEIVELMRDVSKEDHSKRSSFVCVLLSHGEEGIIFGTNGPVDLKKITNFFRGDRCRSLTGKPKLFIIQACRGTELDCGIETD
- Sequence (P42574 176-277 limits assumed): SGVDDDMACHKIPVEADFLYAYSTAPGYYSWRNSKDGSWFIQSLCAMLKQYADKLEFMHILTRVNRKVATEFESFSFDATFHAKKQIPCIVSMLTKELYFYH
- Experimental Details: Reaction Biology caspase panel
- Assay type: biochemical
Endpoint Label: IC50

I have 3 compounds here; please give me IC50 for each one.
1. CC(C)(C)[C@H](NC(=O)c1ccc(N)c(Cl)c1)C(=O)N1CCC[C@H]1C(=O)N[C@H](C#N)CC(=O)O
2. CCOC(=O)C[C@@H](C#N)NC(=O)[C@@H]1CCCN1C(=O)[C@@H](NC(=O)c1ccc(N)c(Cl)c1)C(C)(C)C
3. CC(C)(C)[C@H](NC(=O)c1ccc(N)c(Cl)c1)C(=O)N1CCC[C@H]1C(=O)N[C@H](C#N)Cc1nnn[nH]1

**Result**
1. > 10 µM
2. > 10 µM
3. > 10 µM

---

- Measured On: UniProt P51878
- Sequence (P51878 137-327 limits assumed): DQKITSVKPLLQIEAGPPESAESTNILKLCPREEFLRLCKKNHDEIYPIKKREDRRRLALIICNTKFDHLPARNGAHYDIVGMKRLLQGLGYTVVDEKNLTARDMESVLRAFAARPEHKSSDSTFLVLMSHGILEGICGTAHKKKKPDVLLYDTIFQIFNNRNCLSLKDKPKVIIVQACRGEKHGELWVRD
- Sequence (P51878 347-434 limits assumed): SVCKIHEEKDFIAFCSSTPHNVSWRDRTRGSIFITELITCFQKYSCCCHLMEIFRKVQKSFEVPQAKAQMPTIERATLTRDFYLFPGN
- Experimental Details: Reaction Biology caspase panel
- Assay type: biochemical
I'd appreciate it if you could supply IC50 values for the items below.
Give bare numbers, in nM.

Below are 2 compounds. Give each one its IC50.
1. CC(C)(C)[C@H](NC(=O)c1ccc(N)c(Cl)c1)C(=O)N1CCC[C@H]1C(=O)N[C@H](C#N)CC(=O)O
2. CC(C)(C)[C@H](NC(=O)c1ccc(N)c(Cl)c1)C(=O)N1CCC[C@H]1C(=O)N[C@H](C#N)Cc1nnn[nH]1

**Result**
[3.6, 1300]

**Query** Find the recorded IC50 belonging to CCOC(=O)C[C@@H](C#N)NC(=O)[C@@H]1CCCN1C(=O)[C@@H](NC(=O)c1ccc(N)c(Cl)c1)C(C)(C)C and report it.
**Result** 1570

---

- Experimental Details: Microsomal stability
- Assay type: in vitro ADME, human
- Cond: human, liver microsomes
Endpoint Label: microsomal CLint (µL/min/mg)
Numbers only, in µL/min/mg.

Past entries and their recorded results:
**Query** I would be grateful if you could share the reported microsomal CLint for CCOC(=O)C[C@@H](C#N)NC(=O)[C@@H]1CCCN1C(=O)[C@@H](NC(=O)c1ccc(N)c(Cl)c1)C(C)(C)C .
**Result** 27.4

**Query** Any idea what microsomal CLint was measured for CC(C)(C)[C@H](NC(=O)c1ccc(N)c(Cl)c1)C(=O)N1CCC[C@H]1C(=O)N[C@H](C#N)CC(=O)O ?
**Result** 10.3

**Query** Look up microsomal CLint for this compound: CC(C)(C)[C@H](NC(=O)c1ccc(N)c(Cl)c1)C(=O)N1CCC[C@H]1C(=O)N[C@H](C#N)Cc1nnn[nH]1
**Result** 9.38

***
**Query** Look at this compound and give its reported microsomal CLint. CCO[C@@H]1OC(=O)C[C@@H]1NC(=O)[C@@H]1CCCN1C(=O)[C@@H](NC(=O)c1ccc(N)c(Cl)c1)C(C)(C)C [Compound 1, reference compound]
**Result** 0.147

---

- Measured On: Caspase 10 (Homo sapiens)
- Sequence (Q92851 220-415 limits assumed): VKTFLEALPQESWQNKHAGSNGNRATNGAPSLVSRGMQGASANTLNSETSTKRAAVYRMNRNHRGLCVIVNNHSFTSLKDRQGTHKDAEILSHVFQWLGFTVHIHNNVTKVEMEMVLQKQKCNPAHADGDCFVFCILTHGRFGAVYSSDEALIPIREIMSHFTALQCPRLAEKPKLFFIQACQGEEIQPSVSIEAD
- Sequence (Q92851 416-521 limits assumed): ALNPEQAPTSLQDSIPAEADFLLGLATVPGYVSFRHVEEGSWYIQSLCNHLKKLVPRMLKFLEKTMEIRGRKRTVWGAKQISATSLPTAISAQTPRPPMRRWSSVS
- Experimental Details: Reaction Biology caspase panel
- Format: biochemical
pIC50: −log10 of the molar value.
Endpoint Label: pIC50

Here are 2 molecules together with their reported answers.
**Query** Please give the measured pIC50 for this molecule: CCOC(=O)C[C@@H](C#N)NC(=O)[C@@H]1CCCN1C(=O)[C@@H](NC(=O)c1ccc(N)c(Cl)c1)C(C)(C)C
**Result** < 5.00

**Query** # query: pIC50 of entry CC(C)(C)[C@H](NC(=O)c1ccc(N)c(Cl)c1)C(=O)N1CCC[C@H]1C(=O)N[C@H](C#N)Cc1nnn[nH]1
**Result** < 5.00

Lab note: next molecule to report on.
**Query** // returns reported pIC50 for input CC(C)(C)[C@H](NC(=O)c1ccc(N)c(Cl)c1)C(=O)N1CCC[C@H]1C(=O)N[C@H](C#N)CC(=O)O
**Result** 7.05

---

- Measured On: Caspase 6 (Homo sapiens, UniProt P55212)
- Sequence (P55212 24-179 limits assumed): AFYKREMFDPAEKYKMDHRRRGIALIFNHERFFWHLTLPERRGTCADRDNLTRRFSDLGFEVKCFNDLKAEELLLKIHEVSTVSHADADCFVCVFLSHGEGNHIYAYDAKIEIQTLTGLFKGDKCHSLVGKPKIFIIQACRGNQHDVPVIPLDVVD
- Sequence (P55212 194-293 limits assumed): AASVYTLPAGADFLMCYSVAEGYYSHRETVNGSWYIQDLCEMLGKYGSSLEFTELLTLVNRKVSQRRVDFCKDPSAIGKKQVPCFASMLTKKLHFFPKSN
- Experimental Details: Reaction Biology caspase panel
- Type: biochemical
- Cond: read-out: Caspase 6 IC50; (Z-DEVD)2-R110 substrate; three separate experiments
Endpoint Label: IC50

**Query** I have this compound here, CC(C)(C)[C@H](NC(=O)c1ccc(N)c(Cl)c1)C(=O)N1CCC[C@H]1C(=O)N[C@H](C=O)CC(=O)O [Compound 2b, reference compound] , and I need its recorded IC50.
**Result** > 10 µM

---

- Measured On: caspase 1 (Homo sapiens, UniProt P29466)
- Sequence (P29466 120-297 limits assumed): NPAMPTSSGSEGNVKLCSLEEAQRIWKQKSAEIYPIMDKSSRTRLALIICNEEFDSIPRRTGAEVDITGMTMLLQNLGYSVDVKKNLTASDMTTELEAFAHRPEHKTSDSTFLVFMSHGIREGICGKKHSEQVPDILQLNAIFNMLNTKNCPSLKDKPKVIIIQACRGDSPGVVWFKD
- Sequence (P29466 317-404 limits assumed): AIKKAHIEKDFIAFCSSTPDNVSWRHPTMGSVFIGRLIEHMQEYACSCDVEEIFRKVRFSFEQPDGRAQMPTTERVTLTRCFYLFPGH
- Experimental Details: Reaction Biology caspase panel
- Format: biochemical
Endpoint Label: IC50 (nM)
Give bare numbers, in nM.

Worked set:
**Query** Lookup: IC50 / caspase 1 (Homo sapiens, UniProt P29466) / CCOC(=O)C[C@@H](C#N)NC(=O)[C@@H]1CCCN1C(=O)[C@@H](NC(=O)c1ccc(N)c(Cl)c1)C(C)(C)C
**Result** 43.4

**Query** Please tell me: IC50 of CC(C)(C)[C@H](NC(=O)c1ccc(N)c(Cl)c1)C(=O)N1CCC[C@H]1C(=O)N[C@H](C#N)CC(=O)O , system caspase 1 (Homo sapiens, UniProt P29466)?
**Result** 0.023

For the next question, use this molecule.
**Query** Provide the documented IC50 with caspase 1 (Homo sapiens, UniProt P29466) as the system for CC(C)(C)[C@H](NC(=O)c1ccc(N)c(Cl)c1)C(=O)N1CCC[C@H]1C(=O)N[C@H](C#N)Cc1nnn[nH]1
**Result** 2.58
